A collection of compounds and their measured Inhibition
test system: Plasmodium falciparum; experiment: GSK_TCMDC: Inhibition of Plasmodium falciparum Dd2 in whole red blood cells, using parasite LDH activity as an index of growth. Test compounds present at 2uM; type: functional
Respond with the bare value in %.

Example entries begin here.
Query: Given the entry Cc1nc(C)c(-c2ccc(Oc3ccc(Cl)c(Cl)c3)cc2)c(O)c1Br , report its measured Inhibition.
Result: 96

Query: Similarly, CC1(C)N=C(N)N=C(N)N1O.Cl ?
Result: 1

Query: Similarly, NC1CCN(CCNCc2cccc(-c3ccc(-c4nc5cc(F)ccc5[nH]4)cc3)c2)C1.O=C(O)C(F)(F)F (stereo not given) ?
Result: 4

Query: Similarly, COC(=O)c1cccc(CNCc2ccc(-c3ccc(-c4nc5cc(F)ccc5[nH]4)cc3)cc2)c1.O=C(O)C(F)(F)F ?
Result: 95

Query: Similarly, Cc1cc(-c2ccc(CNC3Cc4ccccc4C3)cc2)ccc1S(=O)(=O)NCCN1CCCC1.O=C(O)C(F)(F)F ?
Result: 73

Query: Similarly, N=C(N)NCCN(Cc1ccccc1)c1ccccc1 ?
Result: 98

Query: Similarly, Cc1nc(C)c(-c2ccc(-c3ccc(F)cc3)cc2)c(O)c1Cl ?
Result: 96

Query: Similarly, COc1cc(SC)ccc1C(=O)N1CC(C)CC(C)C1 (stereo not given) ?
Result: 66

Next:
Query: Given the entry O=C(NCc1cccc2ccccc12)C(c1cc2ccccc2o1)N1CCN(C(c2ccccc2)c2ccccc2)CC1 (stereo not given) , report its measured Inhibition.
Result: 90

Query: Similarly, CCOc1ccccc1CNc1nccc(NCc2ccc(Cl)cc2Cl)n1 ?
Result: 58

###

tested on: HepG2; assay: GSK_TCMDC: Percent inhibition of human HepG2 cell line. Test compounds present at 10uM.; assay type: functional
A collection of molecules and their measured Inhibition
Respond with the bare value in %.

Example entries begin here.
Query: What value of Inhibition on HepG2 does Fc1ccc(Nc2ccnc3cc(-c4ccc(CN5CCOCC5)o4)ccc23)c(Cl)c1 have?
Result: 42

Query: Similarly, O=C(Nc1ccc(-c2cccc(-c3nc4ccccc4[nH]3)c2)cc1)Nc1ccc2c(c1)OCO2 ?
Result: 55

Query: Similarly, Br.c1ccc(-c2nc(Nc3ccncc3)sc2-c2ccccc2)cc1 ?
Result: 0

Query: Similarly, Cc1nc(-c2cccc(C(=O)Nc3cnc4ccccc4c3)c2)no1.O=C(O)C(F)(F)F ?
Result: 15

Query: Similarly, Cc1cc(NS(=O)(=O)c2cccc(C(C)N3CCC(N4CCCC4)CC3)c2)ccc1C(C)C (stereo not given) ?
Result: 30

Query: Similarly, Cc1oc(-c2ccccc2)nc1CCOc1ccc(C[C@H](Nc2ccccc2C(=O)c2ccccc2)C(=O)NCc2ccccn2)cc1 ?
Result: 0

Query: Similarly, Cc1c[nH]c(CCNC(=O)c2cc(-c3ccc(Cl)cc3)cs2)n1 ?
Result: 12

Query: Similarly, Cl.N#Cc1ccc2c(c1)CCN(CCC1CCC(NC(=O)Nc3ccnc4ccccc34)CC1)C2 (stereo not given) ?
Result: 38

Next:
Query: What value of Inhibition on HepG2 does Clc1cc2c(Nc3ccc(Oc4ccccc4)cc3)ccnc2cc1-c1ccc(CNCCN2CCOCC2)o1 have?
Result: 0

Query: Similarly, Clc1ccc2c(NCc3ccc4c(c3)OCO4)ccnc2c1 ?
Result: 6

Query: Similarly, CCN(CC)CCNC(=O)c1ccc(NC(=O)c2cc3c(C)nn(-c4ccc(Cl)cc4)c3s2)cc1.Cl ?
Result: 24

Query: Similarly, Nc1ncc(-c2ccccc2)cc1-c1cccc2ncccc12.O=C(O)C(F)(F)F ?
Result: 82

Query: Similarly, Cc1ccc(NS(=O)(=O)c2ccc(-c3ccccc3)cc2)c(Cn2cnc(N3CCCNCC3)cc2=O)c1.O=C(O)C(F)(F)F ?
Result: 10

Query: Similarly, COc1cc2c(OC)cccc2cc1CNCCCCCCNCc1cc2cccc(OC)c2cc1OC.CS(=O)(=O)O ?
Result: 59

Query: Similarly, COc1ccc(CC(=O)Nc2ccc(Nc3nc(C)cc(N4CCCC4)n3)cc2)cc1 ?
Result: 56

Query: Similarly, O=C(Nc1ccc(Cn2ncc(N3CCCNCC3)c(Cl)c2=O)cc1)Nc1ccc(SC(F)(F)F)cc1.O=C(O)C(F)(F)F ?
Result: 9

Query: Similarly, COc1cccc(NC(=O)Nc2ccc(Nc3nc(C)cc(N4CCCC4)n3)cc2)c1 ?
Result: 28

Query: Similarly, Cc1ccc2c(=O)cc(CCc3cccc(F)c3F)n(CC(=O)N(Cc3ccc(-c4ccc(C(F)(F)F)cc4)cc3)C3CCN(C(C)C)CC3)c2n1.O=C(O)C(O)C(O)C(=O)O ?
Result: 58

Query: Similarly, CCN(CC)/C(=N/C(=N)NCc1ccc(Cl)cc1Cl)NCCCCCCN/C(=N\C(=N)NCc1ccc(Cl)cc1Cl)N(CC)CC ?
Result: 16

Query: Similarly, CCOC(=O)C(NC(=O)c1ccc([N+](=O)[O-])o1)C(C)C (stereo not given) ?
Result: 0
